Read-out record for UniProt P35372: AC50
Sequence (P35372 whole entry): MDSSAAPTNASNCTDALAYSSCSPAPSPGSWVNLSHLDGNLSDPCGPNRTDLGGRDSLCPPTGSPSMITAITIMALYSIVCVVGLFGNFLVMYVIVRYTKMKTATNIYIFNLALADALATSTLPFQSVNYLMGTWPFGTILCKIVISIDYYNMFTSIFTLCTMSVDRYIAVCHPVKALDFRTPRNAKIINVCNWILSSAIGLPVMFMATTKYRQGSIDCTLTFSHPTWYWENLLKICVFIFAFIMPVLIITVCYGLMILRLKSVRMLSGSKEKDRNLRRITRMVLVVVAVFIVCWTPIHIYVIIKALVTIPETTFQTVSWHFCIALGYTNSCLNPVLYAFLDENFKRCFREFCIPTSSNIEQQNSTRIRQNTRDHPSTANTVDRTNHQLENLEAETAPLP

>>> print(df.to_string())
                                   molecule  assay_value
0            O=C(O)[C@@H](S)[C@@H](S)C(=O)O      > 30 µM
1  CC1(C)C[C@@H]1C(=O)N/C(=C\CCCCSC[C@H](N)C(=O)O)C(=O)O      > 30 µM

Switching to the query record.
[in] API: value(readout=AC50, system=UniProt P35372) for record C[C@@H](CN1CC(=O)NC(=O)C1)N1CC(=O)NC(=O)C1
[out] > 30 µM

* * *

# Lookup of reported AC50 keyed by entry
# target: 5-hydroxytryptamine receptor 1A (Homo sapiens); note: assay procedure not described here
# Sequence (P08908 whole entry): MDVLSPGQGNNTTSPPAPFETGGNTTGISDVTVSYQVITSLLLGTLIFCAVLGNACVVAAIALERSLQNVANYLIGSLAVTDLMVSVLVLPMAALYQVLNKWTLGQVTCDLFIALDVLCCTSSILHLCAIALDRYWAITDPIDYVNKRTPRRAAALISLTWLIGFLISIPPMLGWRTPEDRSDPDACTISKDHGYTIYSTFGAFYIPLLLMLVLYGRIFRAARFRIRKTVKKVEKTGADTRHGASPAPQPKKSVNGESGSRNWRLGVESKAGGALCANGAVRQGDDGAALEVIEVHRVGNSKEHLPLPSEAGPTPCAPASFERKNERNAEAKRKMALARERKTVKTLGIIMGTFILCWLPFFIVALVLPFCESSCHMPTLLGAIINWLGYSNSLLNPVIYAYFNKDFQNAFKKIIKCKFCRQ
# Format: functional, cell-based

Below are worked cases with known answers.
>>> print(df.to_string())
                                   compound                                    target  quantity_name  assay_value
0               CN(C)CCN(Cc1ccccc1)c1ccccn1  5-hydroxytryptamine receptor 1A (Homo sapiens)           AC50      > 10 µM
1  CN(C)CCOC(c1ccc(Cl)cc1)c1ccccn1 (stereo not given)  5-hydroxytryptamine receptor 1A (Homo sapiens)           AC50      > 30 µM
2  O=C(Cc1cccs1)N[C@@H]1C(=O)N2C(C(=O)[O-])=C(C[n+]3ccccc3)CS[C@H]12  5-hydroxytryptamine receptor 1A (Homo sapiens)           AC50      > 30 µM
3  CCc1ccc(C(=O)C(C)CN2CCCCC2)cc1 (stereo not given)  5-hydroxytryptamine receptor 1A (Homo sapiens)           AC50      > 30 µM
4  N[C@@H](Cc1cc(I)c(Oc2cc(I)c(O)c(I)c2)c(I)c1)C(=O)O  5-hydroxytryptamine receptor 1A (Homo sapiens)           AC50      > 30 µM
5  Cc1cccc(Nc2ccncc2S(=O)(=O)NC(=O)NC(C)C)c1 [TORSEMIDE]  5-hydroxytryptamine receptor 1A (Homo sapiens)           AC50      > 10 µM

[in] Given the compound CC(C)(C)NCC(O)COc1ccccc1C#N (stereo not given) , what is its reported AC50?
[out] > 30 µM

[in] Given the compound Nc1ccc(S(=O)(=O)Nc2ncccn2)cc1 , what is its reported AC50?
[out] > 10 µM

[in] // lookup AC50 for CC1(C)O[C@@H]2C[C@H]3[C@@H]4CCC5=CC(=O)C=C[C@]5(C)[C@@]4(F)[C@@H](O)C[C@]3(C)[C@]2(C(=O)CO)O1 [TRIAMCINOLONE ACETONIDE]
[out] > 30 µM

[in] Consider the compound shown here: C[C@H](CS)C(=O)N1CCC[C@H]1C(=O)O What is its recorded AC50?
[out] > 30 µM
